Each entry below carries its recorded Primary assay EC50 (cAMP), Mean pM GLP-1R.
# testedTarget: GLP-1 receptor (human, UniProt P43220 24-463)
# testMethodNotes: cell-based or functional assay
Starred links: 1 amine or outer side, 2 acyl side, 3 side chain; linkers in the order of their positions; H or OH if unused. Non-standard residues stand in square brackets, D forms with d. Groups on a side chain read outwards from the residue. Primed or numbered codes have the meaning given here. No end group written: not given here. *: point of attachment. γGlu = O=C(O)[C@H](CCC(=O)[*:2])N[*:1]; Stearoyl = CCCCCCCCCCCCCCCCCC(=O)*; αMeF = C[C@](N)(Cc1ccccc1)C(=O)O; αMeK = C[C@](N)(CCCCN)C(=O)O; αMeS = C[C@](N)(CO)C(=O)O; PEG2′ = not defined here; Aib = CC(C)(N)C(=O)O
measuredMetric: Primary assay EC50 (cAMP), Mean pM GLP-1R (pM)

binder: H[Aib]EGS[αMeF]TSDVSS[αMeF]LEGEAAK([PEG2′-PEG2′-γGlu-Stearoyl])E[αMeF]IA[αMeF]VV[αMeK]GG-NH2 [SEQ ID NO 46]
assayResult: 1560
//
binder: H[Aib]EGS[αMeF]TDDV[αMeS]S[αMeF]LEGEAAK([PEG2′-PEG2′-γGlu-Stearoyl])E[αMeF]IA[αMeF]VV[αMeK]GG-NH2 [SEQ ID NO 36]
assayResult: 44200
//
binder: H[Aib]EGS[αMeF]TSDV[αMeS]S[αMeF]LEGEAAKEFIK([PEG2′-PEG2′-γGlu-Stearoyl])WVVEGG-NH2 [SEQ ID NO 65]
assayResult: 16.9

These entries and their values trace back to patent US20200079833A1.
